We begin with a simple list: items and their reported AUC.
System: Mus musculus
assay_method_text: Compound was evaluated in vivo in blood samples from the orbital sinus for its concentration using Area under the time-concentration curve after 40 mg/kg intramuscular administration to mice
Assay type: ADME, organism-based
Design: dose 40 mg/kg, route intramuscular
assay_conditions: im
Give the quantity in ng·h/mL, number only.

Below: 4 compounds and their reported AUC.
compound_structure | unit_string | AUC
CC(C)(C)n1cc(C(=O)O)c(=O)c2cc(F)c(N3C[C@H]4C[C@@H]3CN4)nc21 | ng·h/mL | 25000
CC(C)(CF)n1cc(C(=O)O)c(=O)c2cc(F)c(N3CC[C@H](N)C3)cc21.CS(=O)(=O)O | ng·h/mL | 14000
CC(C)(C)n1cc(C(=O)O)c(=O)c2cc(F)c(N3CC[C@H](N)C3)cc21.CS(=O)(=O)O | ng·h/mL | 15000
CC(C)(CF)n1cc(C(=O)O)c(=O)c2cc(F)c(N3CC4C[C@@H]3CN4)nc21.Cl | ng·h/mL | 20000

Let us move to another entry and its AUC.
## Input Given the compound "O=C(O)c1cn(C2CC2)c2cc(N3CCNCC3)c(F)cc2c1=O" , what is its reported AUC?
## Output 21000
